Molecular target: T1, anti-CLDN-5 ECR mAb clone 1B3
T1 chain 1: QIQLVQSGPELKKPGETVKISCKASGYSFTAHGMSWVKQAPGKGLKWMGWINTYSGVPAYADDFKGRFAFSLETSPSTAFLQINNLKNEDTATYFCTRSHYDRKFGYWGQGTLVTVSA
T1 chain 2: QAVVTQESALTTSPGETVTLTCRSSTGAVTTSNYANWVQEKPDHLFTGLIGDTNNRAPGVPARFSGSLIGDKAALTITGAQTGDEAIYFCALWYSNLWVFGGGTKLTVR
Experiment: proteoliposome ELISA
Settings: chain shown with the change;; parent: est. 1.0; read off a plot
experimental.readout: ratio to parent
Quick one: just the number, no unit, thanks!

Consider the following illustrative entries.
Task: Dear colleague, I am looking for the recorded ratio to parent of the following binder: AGIA-tagged human CLDN-5, cell-free synthesized proteoliposome, O00501 V154A (protein) MGSAALEILGLVLCLVGWGGLILACGLPMWQVTAFLDHNIVTAQTTWKGLWMSCVVQSTGHMQCKVYDSVLALSTEVQAARALTVSAVLLAFVALFVTLAGAQCTTCVAPGPAKARVALTGGVLYLFCGLLALVPLCWFANIVVREFYDPSVPASQKYELGAALYIGWAATALLMVGGCLLCCGAWVCTGRPDLSFPVKYSAPRRPTATGDYDKKNYV
Result: 1.2

Task: Another: AGIA-tagged human CLDN-5, cell-free synthesized proteoliposome, O00501 S155A (protein) MGSAALEILGLVLCLVGWGGLILACGLPMWQVTAFLDHNIVTAQTTWKGLWMSCVVQSTGHMQCKVYDSVLALSTEVQAARALTVSAVLLAFVALFVTLAGAQCTTCVAPGPAKARVALTGGVLYLFCGLLALVPLCWFANIVVREFYDPSVPVAQKYELGAALYIGWAATALLMVGGCLLCCGAWVCTGRPDLSFPVKYSAPRRPTATGDYDKKNYV
Result: 1.3

Now for a further binder.
Task: Dear colleague, I am looking for the recorded ratio to parent of the following binder: AGIA-tagged human CLDN-5, cell-free synthesized proteoliposome, O00501 P153A (protein) MGSAALEILGLVLCLVGWGGLILACGLPMWQVTAFLDHNIVTAQTTWKGLWMSCVVQSTGHMQCKVYDSVLALSTEVQAARALTVSAVLLAFVALFVTLAGAQCTTCVAPGPAKARVALTGGVLYLFCGLLALVPLCWFANIVVREFYDPSVAVSQKYELGAALYIGWAATALLMVGGCLLCCGAWVCTGRPDLSFPVKYSAPRRPTATGDYDKKNYV
Result: 0.19
